// provenance: PubChem BioAssay AID2060615

pIC50 overview
# Test system: 496974-208-R-J2-PDC complex spheroids, growth % test/control;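 also: spheroids exposed to the drugs for 7 days before readout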
# assayExplanation: Anticancer human tumor 496974-208-R-J2-PDC patient-derived pancreatic carcinoma cell line growth inhibition [CLK]
# conditionInfo: curve of first compound; second compound 0.1 µM
Quick note: pIC50 means taking -log10 of the concentration in moles per liter.

compound	pIC50
Nc1ccccc1NC(=O)c1ccc(CNC(=O)OCc2cccnc2)cc1 + CN1CCN(c2cc(C(=O)Nc3cc4cc(-c5cnn(C)c5)ccc4cn3)ccn2)CC1	5.36
NC(=O)C(=Cn1cnc(-c2cc(C(F)(F)F)cc(C(F)(F)F)c2)n1)c1cncnc1 + CN1CCN(c2cc(C(=O)Nc3cc4cc(-c5cnn(C)c5)ccc4cn3)ccn2)CC1	7.38

Alright, here's another compound for you.
Task: Request - read-out pIC50 | tested on 496974-208-R-J2-PDC complex spheroids, growth % test/control | compound COC1C=CCC(C)C(C)S(=O)(=O)NC(=O)c2ccc3c(c2)N(CC2CCC21)CC1(CCCc2cc(Cl)ccc21)CO3 (stereo not given) + CNC(=O)c1ccc(Nc2nc(OC3CCCC3)c3c(-c4ccc5nc(C)oc5c4)c[nH]c3n2)c(OC)c1;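 also: spheroids exposed to the drugs for 7 days before readout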
Result: 5.46
